Biological target: human TASK-3 (Homo sapiens (Human))
Sequence (Q9NPC2 whole entry): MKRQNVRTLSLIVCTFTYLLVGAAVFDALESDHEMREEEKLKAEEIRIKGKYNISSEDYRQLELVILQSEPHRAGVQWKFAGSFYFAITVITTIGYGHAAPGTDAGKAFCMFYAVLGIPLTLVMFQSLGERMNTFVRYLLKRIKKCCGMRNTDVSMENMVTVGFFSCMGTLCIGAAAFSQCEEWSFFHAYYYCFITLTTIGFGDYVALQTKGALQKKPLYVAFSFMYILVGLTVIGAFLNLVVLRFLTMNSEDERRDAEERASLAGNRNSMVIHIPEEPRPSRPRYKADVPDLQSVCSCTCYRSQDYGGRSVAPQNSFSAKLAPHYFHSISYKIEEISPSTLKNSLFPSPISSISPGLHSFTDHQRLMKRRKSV
Test: Inhibition of recombinant TASK-3 in stably transfected CHO cells (voltage-sensitive dye, FLIPR)
Type: cell-based
Details: depolarization induced by 40 mM potassium chloride, Table 2A
readoutKind: IC50 (nM)

1. O=C(C1CCCC1)N1CCN(Cc2c(-c3ccc(Br)cc3)nc3ccccn23)CC1	17
2. CC(C)Oc1cccc(C(=O)N2CCN(Cc3c(-c4ccc(Cl)cc4)nc4ccccn34)CC2)n1	56
3. COc1ccc(Cl)c(C(=O)N2CCN(Cc3c(-c4ccc(Cl)cc4)nc4ccccn34)CC2)n1	10
4. O=C(c1ccccc1Cl)N1CCN(Cc2c(-c3ccc(Cl)cc3)nc3ccccn23)CC1	60
5. O=C(c1cccc(OC(F)(F)F)c1)N1CCN(Cc2c(-c3ccc(Cl)cc3)nc3ccccn23)CC1	810
6. O=C(c1cc(F)ccc1Cl)N1CCN(Cc2c(-c3ccc(Br)cc3)nc3ccccn23)CC1	360
7. O=C(C1CCCCC1)N1CCN(Cc2c(-c3ccc(Cl)cc3)nc3ccccn23)CC1	510
8. CC(C)(C)c1ccc(-c2nc3ccccn3c2CN2CCN(C(=O)c3ccccc3F)CC2)cc1	750

(I) COc1ccc(C)c(C(=O)N2CCN(Cc3c(-c4ccc(C(C)(C)C)cc4)nc4ccccn34)CC2)n1
(II) CCOc1cccc(C(=O)N2CCN(Cc3c(-c4ccc(Cl)cc4)nc4ccccn34)CC2)n1
Input line: Of I and II , whose reported IC50 is the larger number? Give the chosen item's label as your response.
Output line: II
(II: 63 nM, I: 17 nM)

(a) O=C(c1cccc(OCC(F)(F)F)n1)N1CCN(Cc2c(-c3ccc(Cl)cc3)nc3ccccn23)CC1
(b) CCOc1ccccc1C(=O)N1CCN(Cc2c(-c3ccc(Cl)cc3)nc3ccccn23)CC1
(c) CC(C)(C)c1ccc(-c2nc3ccccn3c2CN2CCN(C(=O)C3CCCC3)CC2)cc1
(d) N#Cc1ccc(-c2nc3ccccn3c2CN2CCN(C(=O)C3CCCCC3)CC2)cc1
Input line: Put the entries in order of IC50, starting with the largest number. Please express your ranking as an ordered list of the labels.
Output line: d, c, a, b
(d: 1600 nM, c: 830 nM, a: 30 nM, b: 14 nM)

(A) O=C(c1ccccc1F)N1CCN(Cc2c(-c3ccc(C4CC4)cc3)nc3ccccn23)CC1
(B) O=C(C1CCCC1)N1CCN(Cc2c(-c3ccc(Cl)cc3)nc3ccccn23)CC1
Input line: Of A and B , whose reported IC50 is the larger number? Give the chosen item's label as your response.
Output line: B

Values from patent US10759794B2
